- target_or_test_system: S. aureus STKK1 (the soluble kinase domain of STK1, 280 aa) (Staphylococcus aureus, UniProt A0ABF7PGK0)
- Sequence (A0ABF7PGK0 entry or part of it): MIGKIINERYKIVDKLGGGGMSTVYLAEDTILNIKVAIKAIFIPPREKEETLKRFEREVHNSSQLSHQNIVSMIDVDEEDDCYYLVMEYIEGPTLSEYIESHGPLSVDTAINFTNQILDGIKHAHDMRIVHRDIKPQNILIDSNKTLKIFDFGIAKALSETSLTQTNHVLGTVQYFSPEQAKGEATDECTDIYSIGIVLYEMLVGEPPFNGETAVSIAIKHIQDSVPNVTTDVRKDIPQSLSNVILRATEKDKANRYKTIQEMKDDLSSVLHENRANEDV
- method: In vitro kinase assay: inhibition of autophosphorylation of recombinant STKK1 (γ32P-ATP)
- conditions: after 5 min pre-incubation
Each item that follows carries a reported pIC50.
For clarity, pIC50 is expressed as the negative log10 of concentration in mol/L.

Request: So what's the measured pIC50 for this one? `COC(=O)c1ccc2c(=O)[nH]c3c(C(=O)Nc4ccccc4)sc(=S)n3c2c1`
Response: 4.31

Lab note: next compound to report on.
Request: Quick one: pIC50 of `Cc1ccc(NC(=O)c2sc(=S)n3c2[nH]c(=O)c2ccccc23)c(C)c1` ?
Response: 4.61

Every entry's value here was drawn from patent US11318141B2.
